tested on: corn (Zea mays); assay: Test A postemergence; format: in vivo; conditions: Zea mays, post-emergence, 240 h, Postemergence, 500 g ai/ha; visual injury, 0 to 100 scale (0 no effect, 100 complete control), approx. 10 d
quantity kind: Corn plant response rating (crop injury, 0 = no effect, 100 = complete kill) at 500 g/ha (%)
API: value field is a number in %; no unit string.

-- ask // query Corn plant response rating (crop injury, 0 = no effect, 100 = complete kill) at 500 g/ha value for entry CN1CC[C@H](c2cccc(C(F)(F)F)c2)[C@@H](C(=O)Nc2ccc(F)c(F)c2F)C1=O
-- reply 70
